molecular target: SARS-CoV-2 spike protein receptor-binding domain (RBD) (SARS-CoV-2, UniProt P0DTC2 P0DTC2:319-541); assay: […]; PBS pH 7.4, room temperature
recorded endpoint: pKd
Would you please state pKd, meaning minus log10 of the concentration in mol/L, as a bare number?

INPUT: Which pKd is listed for GGGGCTGCTCGGGATTGCGGATATGG (ssDNA) [RBD-46] ?
OUTPUT: 7.46
